System: BT-549 breast
Assay: NCI tumour cell line growth inhibition, 48 h
measurement name: TGI (µM)

1) O=C1C(Cl)=C(Nc2ccc(S(=O)(=O)Nc3ccccn3)cc2)C(=O)c2ccccc21 :: 29.8
2) O=[N+]([O-])c1cc(-c2nc(-c3ccccc3)c(-c3ccccc3)[nH]2)c(O)c([N+](=O)[O-])c1 :: 59.8
3) COc1cc(Cc2nccc3cc(OC)c(OC)cc23)c(N=NN(C)C)cc1OC :: 44
4) COc1cc(/C=C/C(=O)C2(C(=O)/C=C/c3cc(OC)c(OC)c(OC)c3)CCCCC2)cc(OC)c1OC :: 91.9

###

Test system: A498 renal
Test: NCI tumour cell line growth inhibition, 48 h
Overview of recorded TGI for various molecules
measurement name: TGI

1. COc1ccc(OCC(=O)O)c(C(=O)CCC(=O)O)c1 :: > 100 µM
2. CCOc1ccc2nc(NC(=O)C(=O)C(c3cnc4ccccc4n3)[N+](=O)[O-])sc2c1 (centres undefined) :: > 100 µM
3. CC(C)/C(Cl)=N\OC(=O)Nc1cccc(Cl)c1 :: 33.2 µM
4. CC1=C(C)Cc2c(O)ccc(O)c2C1 :: > 100 µM
5. Cc1cnc(C(=O)NNc2nc3sc4c(c3c(=O)n2C)C(C)CCC4)cn1 (centres undefined) :: 7.8 µM
6. COc1ccccc1C(=O)c1c(NCc2ccccc2)c(=O)c1=O :: > 100 µM
7. CCC(=O)Nc1ccc(N2C(=O)C(Cl)C2c2ccc(SC)cc2)cc1 (centres undefined) :: > 100 µM
8. C=CCc1cccc2cc(C(=O)Nc3ccccn3)c(=N)oc12 :: > 100 µM
9. COC(=O)c1ccccc1C1CN=NC12Cc1cc(C)ccc1C2=O (centres undefined) :: > 100 µM
10. CCCSS[C@H]1NC(=O)[C@H]1NC(=O)COc1ccccc1 :: 70.3 µM
11. Nc1nc2c3nc(Nc4ccccc4)sc3nc(=O)n2c2sc(Nc3ccccc3)nc12 :: > 100 µM
12. COc1ccc2nc(-c3ccc(O)cc3)sc2c1 :: 85.7 µM
13. N#CC1CCCCCCCCCCC(=O)N(CCCl)C1=O (centres undefined) :: > 100 µM
14. CC(=O)c1cc2ccccc2oc1=O :: > 100 µM
15. C=CC(Cl)(CBr)CCC(Br)C(C)(C)Cl (centres undefined) :: 27.2 µM
16. CN(C)CCNC(=O)c1ccc(NC(=O)c2nc([N+](=O)[O-])cn2C)cc1 :: > 100 µM
17. COc1cc(CNNC(N)=S)cc(OC)c1OC :: > 100 µM
18. CC(=O)Nc1ccc(/C=C/C(=O)N2CC(CCl)c3c2cc(N)c2ccccc32)cc1 (centres undefined) :: 0.00609 µM
19. O=C1c2ccc(O)c(O)c2C(=O)c2c(O)ccc(O)c21 :: 53.8 µM
20. Oc1ccc(-c2nc3ccc(Cl)cc3s2)cc1 :: 35.2 µM
21. CN(Cc1cc(C(C)(C)C)cc(Br)c1O)Cc1cc(C(C)(C)C)cc(Br)c1O :: 8.93 µM
22. COC(=O)C1(C)C=CC(=O)C2(C)C1C(O)C1OC3CC(c4ccoc4)C(C)=C3C1(C)C2CC(=O)O (centres undefined) :: > 100 µM
23. Cc1ccc2c(c1)-c1nc(N)c(C#N)c(-c3ccccc3)c1CCS2(=O)=O :: 98.9 µM
24. COc1cc(C2CC(c3ccc(Nc4ccnc5cc(Cl)ccc45)cc3)=NN2c2ccc(Cl)cc2)cc(OC)c1OC (centres undefined) :: 50.6 µM

###

Tested on: SW-620 colon
Assay: NCI tumour cell line growth inhibition, 48 h
Overview of recorded TGI for various compounds
measurement name: TGI

1) O=c1c2cc(Cl)ccc2sc2cccc(Cl)c12 :: > 100 µM
2) COc1cc(CNNC(N)=S)cc(OC)c1OC :: > 100 µM
3) CCNC(=O)O[C@H]1CN[C@H](C#Cc2cc3ncnc(Nc4ccc(OCc5cccc(F)c5)c(Cl)c4)c3s2)C1 :: > 25 µM
4) CC(=O)OCC1OC(n2c(-c3ccc(C)cc3)cc(-c3ccccc3)c(C#N)c2=O)C(OC(C)=O)C(OC(C)=O)C1OC(C)=O (configuration not stated) :: > 100 µM
5) Cc1cc(N2CCOCC2)cc2[nH]c(-c3c(NC[C@@H](O)c4cccc(Cl)c4)cc[nH]c3=O)nc12 :: 11.2 µM
6) CC(C)=CC1=C2C3=C(C(=O)C4(O)Oc5c(C)c6c7c(c5OC24C)[C@@H](C)CC[C@@H]7[C@@H](C)C[C@H]6C=C(C)C)C(C)CCC3C(C)C1 (some centres not stated) :: > 100 µM
7) COc1cc(-c2nc(SCCC(C)C)nc(Nc3ccc(S(N)(=O)=O)cc3)c2C#N)cc(OC)c1OC :: > 100 µM
8) O=Cc1c(O)c(C(=O)Nc2ccc3[nH]c(=O)[nH]c3c2)cc2ccccc12 :: > 100 µM
9) O=C1C(=Cc2c(O)cc(O)cc2O)C(=O)c2ccccc21 :: > 56.5 µM
10) CN(C)c1ccc(/C=C/c2cc[n+](C)c(/C=C/c3ccc(N(C)C)cc3)c2)cc1 :: 5.6 µM
11) NC(N)=NS(=O)(=O)c1ccc(Nc2c3ccccc3nc3c(C(=O)Nc4ccc(S(N)(=O)=O)cc4)cccc23)cc1 :: > 100 µM
12) O=C1CCc2c(sc3[nH]c(=S)n(Cc4ccc(Cl)cc4)c(=O)c23)C1 :: > 100 µM

###

System: ACHN renal
Assay: NCI tumour cell line growth inhibition, 48 h
measurement name: TGI

1. NC(N)=Nc1ccc(CC(N)C(=O)O)cc1 (stereo not drawn) :: > 12.5 µM
2. COc1ccccc1NC(=O)CC(=O)N/N=C/c1ccc(N(CCC#N)S(=O)(=O)c2ccccc2)cc1 :: > 100 µM
3. C/C(=C\c1csc(C)n1)[C@@H]1C[C@@H]2O[C@]2(C)CCC[C@H](C)[C@H](O)[C@@H](C)C(=O)C(C)(C)[C@@H](O)CC(=O)O1 :: > 100 µM

###

Test system: HCT-15 colon
Assay: NCI tumour cell line growth inhibition, 48 h
*1 amine or outer side, *2 acyl side, *3 side chain or, on linkers, in order; H or OH if unused. Where a SMILES comes first, the peptide text is derived from it. [ ]: non-standard residue; d: D form. The star is where a group is joined. X32 = C[C@H](N[*:1])C(=O)C(C)(C)C(=O)[*:2]; Hmpa(2S,3S) = CC[C@H](C)[C@H](O)C(=O)O; NMeY = CN[C@@H](Cc1ccc(O)cc1)C(=O)O; NMeL = CN[C@@H](CC(C)C)C(=O)O; NMeV = CN[C@H](C(=O)O)C(C)C; Boc = CC(C)(C)OC(=O)*; βAla = NCCC(=O)O
measurement name: TGI

1) CC(=O)OCC1OC(n2c(-c3ccc(C)cc3)cc(-c3ccccc3)c(C#N)c2=O)C(OC(C)=O)C(OC(C)=O)C1OC(C)=O (configuration not stated) :: > 100 µM
2) CC[C@H](C)[C@@H]1OC(=O)CCNC(=O)[C@@H](C)NC(=O)C(C)(C)C(=O)[C@H](C)NC(=O)[C@H](Cc2ccc(OC)cc2)N(C)C(=O)[C@H](C(C)C)N(C)C(=O)CNC(=O)[C@H](CC(C)C)N(C)C(=O)CNC1=O (cyclo(G[NMeL]G[NMeV][NMeY](Me)[X32][dA][βAla][Hmpa(2S,3S)])) :: > 50 µM
3) COC(=O)C(Cc1c[nH]c2ccccc12)NC(=O)C(Cc1c[nH]c2ccccc12)NC(=O)C(Cc1c[nH]c2ccccc12)NC(=O)C(Cc1c[nH]c2ccccc12)NC(=O)C(Cc1c[nH]c2ccccc12)NC(=O)C(Cc1c[nH]c2ccccc12)NC(=O)C(Cc1c[nH]c2ccccc12)NC(=O)C(Cc1c[nH]c2ccccc12)NC(=O)OC(C)(C)C (configuration not stated) (Boc-WWWWWWWW-OMe; configuration not given here) :: > 100 µM
4) CCNC(=O)O[C@H]1CN[C@H](C#Cc2cc3ncnc(Nc4ccc(OCc5cccc(F)c5)c(Cl)c4)c3s2)C1 :: > 25 µM
5) COC(=O)c1ccccc1C1CN=NC12Cc1cc(C)ccc1C2=O (configuration not stated) :: > 100 µM
6) Cc1cc(C)c(-n2c(-c3ccc(Br)cc3)cs/c2=N\N=C2C=C(C(C)(C)C)C(=O)C(C(C)(C)C)=C2)c(C)c1 :: > 100 µM
7) NC(N)=NS(=O)(=O)c1ccc(NCCc2c3ccccc3nc3ccccc23)cc1 :: > 100 µM
8) O=C1c2ccccc2C(=O)N1CC(O)COc1cccc2ccccc12 (configuration not stated) :: > 100 µM
9) CCCC(=O)OC1C(CO)OC(n2cc(F)c(=O)[nH]c2=O)C1F (configuration not stated) :: > 100 µM
10) CN1C(=O)C2C(C1=O)C1(O)c3ccccc3C2(N)c2ccccc21 (configuration not stated) :: > 100 µM
11) COc1cc2c(cc1OC)C13CCN4CC5CCOC6CC(=O)N2C1C6C5CC43 (configuration not stated) :: > 100 µM
12) Cc1cc2c(C)nn(Cc3ccc(Cl)cc3)c2c(C#N)c1C :: > 100 µM
13) COc1ccc(OCC(=O)O)c(C(=O)CCC(=O)O)c1 :: > 100 µM
14) O=C1c2ccc(O)c(O)c2C(=O)c2c(O)ccc(O)c21 :: 89.1 µM
15) O=C1C(Cl)=C(NCc2ccco2)C(=O)c2ccccc21 :: 56.5 µM
16) N#Cc1cccc(/C=N/N=C(\N)NO)c1 :: > 100 µM
17) COc1cc(Cc2nccc3cc(OC)c(OC)cc23)c(N=NN(C)C)cc1OC :: 19.6 µM
18) COC(=O)C1(C)C=CC(=O)C2(C)C1C(O)C1OC3CC(c4ccoc4)C(C)=C3C1(C)C2CC(=O)O (configuration not stated) :: > 100 µM
19) Cc1cn(-c2cc(NC(=O)c3ccc(C)c(Nc4nccc(-c5cccnc5)n4)c3)cc(C(F)(F)F)c2)cn1 :: > 38.3 µM
20) CCCCCCCCCCCCCCCCCCN(C)CC(COP(=O)([O-])OCC[N+](C)(C)C)OC (configuration not stated) :: 23.5 µM
21) O=C(O)C1CC(O)CN1 (configuration not stated) :: > 100 µM
22) O=c1c2cc(Cl)ccc2sc2cccc(Cl)c12 :: > 100 µM
